- experimentalDetails: inhibition of yeast alpha-glucosidase pretreated for 10 mins before maltose challenge measured after 10 mins
- Set-up: species or system Saccharomyces cerevisiae
quantityName: pIC50
Numbers only, as −log10 of the molar value.

Known pIC50 results, listed for orientation:
smilesString | pIC50
COc1cc2cc(C(=O)c3ccc(NS(=O)(=O)c4ccccc4)cc3)c(=O)oc2cc1O | 6.70
Cc1ccc(S(=O)(=O)Nc2ccc(C(=O)c3cc4ccccc4oc3=O)cc2)cc1 | 5.45
O=C(c1ccc(NS(=O)(=O)c2ccccc2)cc1)c1cc2ccc(O)cc2oc1=O | 5.24

Hi team, please reply with pIC50 for each item in this list.
1. Cc1ccc(S(=O)(=O)Nc2ccc(C(=O)c3cc4cc(Cl)ccc4oc3=O)cc2)cc1
2. CCN(CC)c1ccc2cc(C(=O)c3ccc(NS(=O)(=O)c4ccccc4)cc3)c(=O)oc2c1
3. Cc1ccc(S(=O)(=O)Nc2ccc(C(=O)c3cc4cc(C(C)(C)C)cc(C(C)(C)C)c4oc3=O)cc2)cc1
4. Cc1ccc(S(=O)(=O)Nc2ccc(C(=O)c3cc4cc(Br)cc(Br)c4oc3=O)cc2)cc1
5. Cc1ccc(S(=O)(=O)Nc2ccc(C(=O)c3cc4cc(F)ccc4oc3=O)cc2)cc1
6. Cc1ccc(S(=O)(=O)Nc2ccc(C(=O)c3cc4ccc(O)cc4oc3=O)cc2)cc1
7. O=C(c1ccc(NS(=O)(=O)c2ccccc2)cc1)c1cc2cc(F)ccc2oc1=O
8. COc1cc2cc(C(=O)c3ccc(NS(=O)(=O)c4ccc(C)cc4)cc3)c(=O)oc2cc1O

// result
1: 4.57; 2: 6.53; 3: 5.00; 4: 5.11; 5: 5.34; 6: 5.95; 7: 5.14; 8: 7.19

* * *

- experimentalDetails: inhibition of yeast alpha-glucosidase pretreated for 10 mins before maltose challenge measured after 10 mins
- Set-up: species or system Saccharomyces cerevisiae
Record form. Attribute: IC50. Fill in for each entry.

smilesString | quantityName | measuredValue
CC(C)(C)c1cc(C(C)(C)C)c2oc(=O)c(C(=O)c3ccc(NS(=O)(=O)c4ccccc4)cc3)cc2c1 | IC50 | 7.13 µM
O=C(c1ccc(NS(=O)(=O)c2ccccc2)cc1)c1cc2cc(Br)ccc2oc1=O | IC50 | > 30 µM

// query Output measured IC50 for this item: COc1cc2cc(C(=O)c3ccc(NS(=O)(=O)c4ccccc4)cc3)c(=O)oc2cc1OC
// result > 30 µM

* * *

- experimentalDetails: inhibition of yeast alpha-glucosidase pretreated for 10 mins before maltose challenge measured after 10 mins
- Design: species or system Saccharomyces cerevisiae
pIC50: −log10 of the molar value.
Please respond with reported pIC50 for every item in the list.

Worked examples follow.
smilesString | pIC50
COc1ccc2cc(C(=O)c3ccc(NS(=O)(=O)c4ccccc4)cc3)c(=O)oc2c1 | < 4.52
Cc1ccc(S(=O)(=O)Nc2ccc(C(=O)c3cc4cc(Br)ccc4oc3=O)cc2)cc1 | < 4.52
O=C(c1ccc(NS(=O)(=O)c2ccccc2)cc1)c1cc2cc(Cl)ccc2oc1=O | < 4.52
O=C(c1ccc(NS(=O)(=O)c2ccccc2)cc1)c1cc2ccccc2oc1=O | 5.48
O=C(c1ccc(NS(=O)(=O)c2ccccc2)cc1)c1cc2cc(Br)cc(Br)c2oc1=O | < 4.52

The following compounds each have a reported value; give each one's pIC50.
1. CCN(CC)c1ccc2cc(C(=O)c3ccc(NS(=O)(=O)c4ccc(C)cc4)cc3)c(=O)oc2c1
2. COc1ccc2cc(C(=O)c3ccc(NS(=O)(=O)c4ccc(C)cc4)cc3)c(=O)oc2c1
3. COc1cc2cc(C(=O)c3ccc(NS(=O)(=O)c4ccc(C)cc4)cc3)c(=O)oc2cc1OC

// result
1: 6.46; 2: < 4.52; 3: 5.25

This collection of values is drawn from ChEMBL document CHEMBL1154873.
